Where these numbers come from: paper PMC12748989

In what follows, each item is paired with its Average (percentage cell inhibition), Dmastoparan MDA-MB231 12.5uM for MDA-MB-231 cells.
Respond with the bare value in %.

Lookup: Requested field: Average (percentage cell inhibition), Dmastoparan MDA-MB231 12.5uM. Item: `CC[C@H](C)[C@H](N)C(=O)N[C@@H](CC(N)=O)C(=O)N[C@@H](CC(C)C)C(=O)N[C@@H](CCCCN)C(=O)N[C@@H](C)C(=O)N[C@@H](CC(C)C)C(=O)N[C@@H](C)C(=O)N[C@@H](C)C(=O)N[C@@H](CC(C)C)C(=O)N[C@@H](CC(N)=O)C(=O)N[C@@H](CCCCN)C(=O)N[C@@H](CCCCN)C(=O)N[C@H](C(=O)N[C@@H](CC(C)C)C(N)=O)[C@@H](C)CC`
Found: 9.754

Lookup: Form field: reported Average (percentage cell inhibition), Dmastoparan MDA-MB231 12.5uM of `CC[C@H](C)[C@H](N)C(=O)N[C@@H](CC(N)=O)C(=O)N[C@@H](CC(C)C)C(=O)N[C@@H](CCCCN)C(=O)N[C@@H](C)C(=O)N[C@@H](CC(C)C)C(=O)N[C@@H](C)C(=O)N[C@@H](C)C(=O)N[C@@H](CC(C)C)C(=O)N[C@@H](C)C(=O)N[C@@H](CCCCN)C(=O)N[C@@H](CCCCN)C(=O)N[C@@H](CCCCN)C(=O)N[C@@H](CC(C)C)C(N)=O`
Found: 29.9957

Lookup: Which Average (percentage cell inhibition), Dmastoparan MDA-MB231 12.5uM value belongs to `CC[C@H](C)[C@H](N)C(=O)N[C@@H](Cc1c[nH]cn1)C(=O)N[C@@H](CC(C)C)C(=O)N[C@@H](CCCCN)C(=O)N[C@@H](C)C(=O)N[C@@H](CC(C)C)C(=O)N[C@@H](C)C(=O)N[C@@H](C)C(=O)N[C@@H](CC(C)C)C(=O)N[C@@H](C)C(=O)N[C@@H](CCCCN)C(=O)N[C@@H](CCCCN)C(=O)N[C@H](C(=O)N[C@@H](CC(C)C)C(N)=O)[C@@H](C)CC` ?
Found: 35.1529
